# Tested on: SNB-19 CNS
# PROTOCOL_DETAILS: NCI-60 one-dose screen, 48 h
# EXPERIMENTAL_PARAMETERS: 10 µM unless noted
The panel holds about 83,000 compounds, 20% with a hit somewhere; the sample as a whole holds those more often. Active and inactive are the calls of the source. How the source made its calls: active means growth percent below 10; inactive means the rest.
The reply should be one of these categories: active, inactive

How was COc1cc(/C=C/C(=O)/C=C/c2ccc(-n3ccnc3)cc2)ccc1O classified in this test?
inactive

How was O=S(=O)(c1ccc(N/N=C\c2ccccc2Cl)cc1)c1ccc(N/N=C/c2ccccc2Cl)cc1 classified in this test?
inactive

----------
# Tested on: OVCAR-5 ovarian
# PROTOCOL_DETAILS: NCI-60 one-dose screen, 48 h (100 = growth as untreated, 0 = no growth, -100 = all killed)
# EXPERIMENTAL_PARAMETERS: 10 µM unless noted
The panel holds about 83,000 compounds, 20% with a hit somewhere; the sample as a whole holds those more often. Active and inactive are the calls of the source. Rule for the calls: active = growth percent below 10; inactive = the rest.
Consider the following molecules and their measured growth readings.

For the molecule O=C(O)c1cn(C2CC2)c2cc(N3CCN(Cc4c(O)ccc5ccccc45)CC3)c(F)cc2c1=O , what growth is on record?
40.8% (inactive)

For the molecule C=C(C)[C@@H]1CC[C@]2(C)[C@H](C(=O)C=C3[C@@H]4C[C@](C)(C(=O)N5CCN(C)CC5)CC[C@]4(C)CC[C@]32C)[C@@]1(C)CCC#N , what growth is on record?
-75.9% [100 µM] (active)

For the molecule COc1cc(C)cc2oc3oc(=O)c(C(=O)c4cc5cc(Br)ccc5o4)cc3c(=O)c12 , what growth is on record?
98.9% (inactive)

For the molecule CO[C@H]1CC[C@@]2(C)C(=CC[C@H]3[C@@H]4C[C@H](O)C[C@@]4(C)CC[C@@H]32)C1 , what growth is on record?
102% (inactive)

For the molecule Nc1cc(NN=C(c2ccc(O)cc2)c2ccc(O)cc2)c([N+](=O)[O-])cc1[N+](=O)[O-] , what growth is on record?
-50.9% (active)

For the molecule COc1ccc2c(c1)C(C)Cc1c(ncnc1-n1cnc3ccccc31)N2C (centres undefined) , what growth is on record?
48.7% (inactive)

For the molecule CCOC(=O)c1c[nH]n2c(=S)ncnc12 , what growth is on record?
103% (inactive)

For the molecule Ic1ccc2[nH]cc(SSc3c[nH]c4ccc(I)cc34)c2c1 , what growth is on record?
42.7% (inactive)

For the molecule CC(C)c1ccc(C(=O)Nc2nc3ccc(O)cc3s2)cc1 , what growth is on record?
40.6% (inactive)
